- Experimental target: T1, SARS-CoV-2 receptor binding domain (RBD), wild type, His-tagged (SARS-CoV-2, UniProt P0DTC2 319-541)
- T1 construct: domain: RBD; also called His-tagged RBD; BEI NR52309
- Assay summary: BLI competition on His-tagged RBD, after 1st Ab 46
Readout: RBD binding of 2nd Ab after 1st Ab (heat map)
Give the figure only, with no unit attached.

Task: Data request, read-out RBD binding of 2nd Ab after 1st Ab (heat map), for mAb 82 (antibody, V domains shown, also called IgG 82; Antibody 82) VH: QVQLVQSGAEVKKPGASVKVSCKASGGSFSTSAFYWVRQAPGQGLEWMGWINPYTGGTNYAQKFQGRVTMTRDTSTSTVYMELSSLRSEDTAVYYCARSRALYGSGSYFDYWGQGTLVTVSS VL: DIQMTQSPSSLSASVGDRVTITCRASQVISNYLAWYQQKPGKAPKLLIYDASNLETGVPSRFSGSGSGTDFTLTISSLQPEDFATYYCQQSFSPPPTFGQGTRLEIKR
Result: 1.4
